# TEST TARGET: T1, hPDGFRb.mmh (human, UniProt P09619 33-531)
# T1 construct: Soluble monomeric construct; also called soluble human PDGFR-beta.mmh
# T1 sequence (P09619 other isoform, or with tags, fused parts or gaps): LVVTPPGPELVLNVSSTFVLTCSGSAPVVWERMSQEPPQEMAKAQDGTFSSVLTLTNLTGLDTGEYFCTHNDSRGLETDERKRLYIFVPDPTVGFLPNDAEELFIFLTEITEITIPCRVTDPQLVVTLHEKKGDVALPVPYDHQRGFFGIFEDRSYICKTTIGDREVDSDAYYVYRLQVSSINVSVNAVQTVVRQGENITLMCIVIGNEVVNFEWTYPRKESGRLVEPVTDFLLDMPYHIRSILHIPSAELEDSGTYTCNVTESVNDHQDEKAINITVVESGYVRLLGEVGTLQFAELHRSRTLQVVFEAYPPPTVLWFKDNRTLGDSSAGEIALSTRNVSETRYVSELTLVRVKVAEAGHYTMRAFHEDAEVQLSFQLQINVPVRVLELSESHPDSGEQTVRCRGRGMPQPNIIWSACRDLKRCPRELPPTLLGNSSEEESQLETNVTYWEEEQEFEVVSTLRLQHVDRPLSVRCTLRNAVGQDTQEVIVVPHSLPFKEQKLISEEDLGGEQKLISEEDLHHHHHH
# TEST DETAILS: SPR, mAb captured, 37 C
QUANTITY KIND: t1/2 (min)

binder="H4H3098S (antibody, human IgG4, V domains shown, human IgG4 Fc (H4H prefix)) VH: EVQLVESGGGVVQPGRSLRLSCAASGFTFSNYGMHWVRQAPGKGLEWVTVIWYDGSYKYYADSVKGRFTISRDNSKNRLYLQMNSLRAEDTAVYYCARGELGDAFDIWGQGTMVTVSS VL: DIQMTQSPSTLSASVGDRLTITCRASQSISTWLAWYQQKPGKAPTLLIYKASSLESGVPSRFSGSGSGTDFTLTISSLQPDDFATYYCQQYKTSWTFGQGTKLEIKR" quantity_kind=t1/2 result=7
binder="H4H3374N (antibody, human IgG4, V domains shown, human IgG4 Fc (H4H prefix)) VH: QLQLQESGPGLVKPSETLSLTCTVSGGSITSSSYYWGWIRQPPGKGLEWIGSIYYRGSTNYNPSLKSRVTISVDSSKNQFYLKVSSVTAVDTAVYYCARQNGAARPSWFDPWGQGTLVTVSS VL: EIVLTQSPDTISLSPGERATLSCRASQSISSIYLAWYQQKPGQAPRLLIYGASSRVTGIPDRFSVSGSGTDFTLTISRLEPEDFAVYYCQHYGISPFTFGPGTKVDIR" quantity_kind=t1/2 result=9
binder="H4H3104S (antibody, human IgG4, V domains shown, human IgG4 Fc (H4H prefix)) VH: QVQLVESGGGLVQPGGSLRLSCAAAGFTFSHYWMSWVRQAPGKGLEWVATIKKDGSERYYVDSVKGRFTISRDNARNSMYLEMNSLRTEDTAIYYCARDIVTPNTDYYFGMDVWGQGTTVTVSS VL: DIQLTQSPSTLSASVGDRVTITCRASQSFNNWLSWYQQKPGKAPKLLIYMASTLESGVPSRFSGSGSGTDFTLTINSLQPDDFATYYCQQSNSYSRTFGHGTKVEIK" quantity_kind=t1/2 result=4
binder="H4H3106S (antibody, human IgG4, V domains shown, human IgG4 Fc (H4H prefix)) VH: QVQLVESGGGLVQPGGSLRLSCAASGFTFSSYWMSWVRQVPGKGLEWVANMNQDGTEKYYVDSVKGRLTISRENVKNSLYLQMNGLRAEDTAVYYCARDLVPPRQGDYYYYFGMDVWGHGTMVTVSS VL: AIQMTQSPSTLSASVGDIVTITCRASQSISDWLAWYQQKPGKAPKLLIFKASSLESGVPSRFSGSGSGTDFTLTISSLQPDDFATYYCQQYNSYSRTFGQGTKVDIK" quantity_kind=t1/2 result=3
